Assay: binders of probe aFGF2 on microarray, primary screen, stem cell growth factor project, biochemical, small-molecule microarray, fluorescence 635/667 (AID 1067);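 further: measures binding of biotinylated aFGF2 protein to printed compounds on slides; z-score merges feature fluorescence and signal-to-noise across triplicate slides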
Settings: higher = more signal
Short version: composite z-score at least -0.1 is 1 (yes), less is 0 (no).

Q: Given "CCCC=C(CCC)[C@@H](NS(=O)(=O)c1cccs1)c1ccc(C(=O)OC)cc1" , state whether its composite z-score is at least -0.1.
Ans: 1 (yes)

New cases:
Q: Hi team, for "O=C(c1ccccc1)N1Cc2ccccc2[C@@H]2OC(c3ccc(OCCCO)cc3)=N[C@]2(Cc2ccccc2)C1=O" , is the recorded composite z-score at or above -0.1?
Ans: 1 (yes)

Q: Check this compound for composite z-score at or above -0.1: CC1CC/C=C\[C@H]2OC34C=CCN(C(C)(C)C)C(=O)[C@H]3N(CCCCCCO)C(=O)[C@@H]4C2C(=O)O1 (stereo not given in full)
Ans: 0 (no)

Q: Given "C=CC[C@]1(C(=O)N2CCCCC2)N=C(c2ccc(OCCCO)cc2)O[C@H]1c1ccccc1" , state whether its composite z-score is at least -0.1.
Ans: 1 (yes)
